The reported measurements were obtained from PubChem BioAssay.

- Test system: Wnt5a (protein binding on small-molecule microarray)
- Assay Explanation: Wnt5a binders on small-molecule microarray, primary screen, biophysical, 635/667 nm fluorescence (AID 1142);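 also: fluorescence read at 667 nm with signal to noise per printed feature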
- Cond: 635 nm fluorescence, higher = more signal
Listed here: items and their measured composite z-score.
Value Type: composite z-score

- Compound: "CS(=O)(=O)CCOC(=O)C1=CC(CCCO)=CC(C2CC2)N(Cc2sc3ccccc3c2Cl)C=C1C(=O)OCCS(C)(=O)=O (stereo unspecified)"
  Data Value: 0.296
- Compound: "COc1cc(Cc2cc3c(c(-c4ccccc4)n2)[Si](C(C)C)(C(C)C)OC3)cc(OC)c1OC"
  Data Value: 0.26
- Compound: "COCCOC(=O)N1C(=O)[C@@]2(c3cc(C#CCNC(N)=O)ccc31)[C@H](C(=O)N1CCN(c3ncccn3)CC1)[C@H]1C(=O)O[C@H](c3ccccc3)[C@H](c3ccccc3)N1[C@@H]2c1ccc(O)cc1"
  Data Value: -0.546
- Compound: "Cc1ccc(S[C@]2(C(=O)NCCN3CCOCC3)CC(=O)N(C(C)C)[C@@H]2c2ccc(CO)cc2I)cc1"
  Data Value: -0.141
- Compound: "COc1ccc([Si](C)(C)[C@H]2[C@H](CC(=O)N(CCO)Cc3ccccc3)O[C@@]3(C(=O)N(c4ccccc4)c4ccccc43)[C@@H]2C)cc1"
  Data Value: 0.318
- Compound: "C=CCNC(=O)[C@@H]1[C@H]2C(=O)O[C@H](c3ccccc3)[C@H](c3ccccc3)N2[C@H](c2ccc(OCCO)cc2)[C@@]12C(=O)Nc1ccc(C#CCNC(N)=O)cc12"
  Data Value: 0.0977
